experiment: NCI Yeast Anticancer Drug Screen. Data for the rad50 strain (AID 155);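 also: 0% = growth of vehicle-only cultures of the same strain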; conditions: S. cerevisiae rad50 strain growth inhibition, hits give high values; at 50.0 µM unless noted
Compounds without any hit were thinned out: in the full panel of roughly 79,000, 15% have a hit.
test.readout: growth inhibition (%)
Kindly answer with a numeric value in %, unit omitted.

Problem: Query (compound): O=C1OCC/C1=C/c1ccc(N=Nc2c(O)ccc3ccccc23)cc1 ; field requested: growth inhibition
Result: 2.4

Problem: Further, for FC1=C(F)C2(F)C3CCC(O3)C2(F)C(Br)=C1F (stereo unspecified) ?
Result: -9.6

Problem: // next record COc1ccc(/C(C)=N/NC(=O)c2ccncc2)cc1OC
Result: -9.6

Problem: Param item: COC1=C2CC(C)CC(OC)C(O)C(C)/C=C(\C)C(OC(N)=O)C(OC)/C=C\C=C(/C)C(=O)NC(=C(/C=N/N(C)C)C1=O)C2=O (stereo unspecified)
Result: -11.3

Problem: Then N#CC1=C(N)OC(C2CC2)=C(C#N)C1c1ccco1 (stereo unspecified) ?
Result: -9.75

Problem: Request: CC(=O)Cc1ncn(-c2cc(C)on2)n1
Result: -9.4

Problem: Please answer likewise for BrC1CC2CCC1CC2 (stereo unspecified)
Result: -14.7

Problem: Item: CCCCN(CCCC)C(=O)c1cccc(C)c1
Result: 13.7

Problem: Next: CC(=O)OC1CC2C3CCc4cc(O)ccc4C3CCC2(C)C1 (stereo unspecified)
Result: 22.4

Problem: // repeat for CC(C)(C)C1C=C(Sc2ccccc2)C(=O)O1 (stereo unspecified) and report
Result: 28.8

Problem: What do we get for Clc1cccc(Cl)c1C1SCc2nc3cc4ccccc4cc3n21 (stereo unspecified) ?
Result: -1.8

Problem: Again, but for O=C(NCCNC(=O)C(Br)(Br)Br)C(Br)(Br)Br
Result: 82.3

Problem: Entry to check: CC(=O)NC1CCC(CCC2CCCCC2)CC1 (stereo unspecified)
Result: 0.55

Problem: What about CCCCCCCCCCCCCCCC(=O)c1ccccc1 ?
Result: 33.2

Problem: And Nc1nc(=S)c2c(ncn2CCO)[nH]1 ?
Result: -25.1

Problem: Another compound to check: CC(=O)c1ccccc1OB(F)F
Result: 10.2

* * *

Assay: NCI Yeast Anticancer Drug Screen. Data for the sgs1 mgt1 strain (AID 161);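 also: 0% = growth of cultures given vehicle only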
Settings: S. cerevisiae sgs1 mgt1 strain, hits give high values; at 50.0 µM unless noted
Protocol: Growth inhibition of yeast strains with defined genetic alterations is measured as a screen for potential anti-cancer activity. Selected strains with alterations in DNA damage repair or cell cycle control were exposed to compounds and growth inhibition was measured relative to vehicle treated controls. The strain used in this assay is sgs1 mgt1
This is part of a sample that, as a whole, favours compounds with a hit. Of some 79,000 tested, about 15% had one in any assay. Activity calls are given as the source filed them. Cut-off read from the data, not from the text of the source: active = growth inhibition above about 70%; inactive = the rest.
test.readout: growth inhibition

Reference set, count: 3
CCCc1cc2c(cc1CC#N)OCO2 | -9.85% (inactive)
CCOC(=O)CC(=O)CC(=O)OCC | -6.95% (inactive)
COc1c(O)cc2c(c1O)C1OC(CO)C(O)C(O)C1OC2=O (stereo not given) | -3.85% (inactive)

--- query ---
Problem: What growth inhibition value was documented for this compound, O=C(NO)Nc1ccccc1Cl ?
Result: 10.5% (inactive)

* * *

Listing: growth inhibition of selected compounds
experiment: NCI Yeast Anticancer Drug Screen. Data for the rad50 strain (AID 155);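 also: 0% = growth of vehicle-only cultures of the same strain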; details: S. cerevisiae rad50 strain growth inhibition, hits give high values; at 50.0 µM unless noted
Compounds without any hit were thinned out: in the full panel of roughly 79,000, 15% have a hit.
Provide only the numeric value, understood in %.

Answered examples (10):
OCCCC(O)CCC(O)CCC(O)CCCO (configuration not stated) | -4
N#Cc1c(N2CCCC2)nsc1Nc1ccc(F)cc1 | 2.6
CN(C)CCS(=O)(=O)c1ccc(Cl)cc1 | 38.9
Cc1ccc(C)c(Nc2c(C)ccc(C)c2C(=O)O)c1 | -5.3
CCOC(=O)/C(F)=C/c1ccc(C#N)cc1 | 29.3
COc1ccc(-c2nc(Sc3c([N+](=O)[O-])ncn3C)n[nH]2)cc1 | -1.25
COc1cc(OC)c(C2SCC(=O)N2c2nnc(C(F)(F)F)s2)cc1OC (configuration not stated) | 9.9
COC1OC(COS(=O)(=O)c2ccc(C)cc2)C(OS(=O)(=O)c2ccc(C)cc2)C(OS(=O)(=O)c2ccc(C)cc2)C1OS(=O)(=O)c1ccc(C)cc1 (configuration not stated) | -7.45
Cc1ccnc(NCCCNc2nccc(C)n2)n1 | 22.6
O=C(Oc1cccc(OC(=O)c2ccccc2O)c1)c1ccccc1O | -1.05

Problem: Quick one: growth inhibition for Nc1ccc2ncc(Nc3ccc(F)cc3)nc2c1 ?
Result: 37.7

Problem: Same for COCc1ccc2c(c1)C(O)NC(=O)O2 (configuration not stated)
Result: 4.75

* * *

experiment: NCI Yeast Anticancer Drug Screen. Data for the mlh1 rad18 strain (AID 175); details: S. cerevisiae mlh1 rad18 strain growth inhibition, hits give high values; at 50.0 µM unless noted
The panel holds about 79,000 compounds, 15% with a hit somewhere; the sample as a whole holds those more often.
Readings of growth inhibition for the listed compounds
# number only, unit % dropped from output

Reference set (3 entries):
COc1ccc(CCNC(=O)CCN2C(=O)CCC2=O)cc1OC | -2.9
CC12C=CC(=O)C(O)C1CC=CC2 (stereo unspecified) | 8.95
CCCCOC(=O)COc1c(Cl)ccc(Cl)c1Cl | 6.7

Problem: Looking for the measured growth inhibition of CC1(C)CCC2=C(O1)C(=O)c1ccccc1C2=O , can you help?
Result: 18

Problem: What do you have for CCN(CC)CCOc1ccc(N2C(=O)c3cc(OC)c(OC)cc3C2=O)cc1 ?
Result: -34.5

Problem: For CC(C)(C)C(=O)CC(=O)C(F)(F)C(F)(F)C(F)(F)F.CC(C)(C)C(=O)CC(=O)C(F)(F)C(F)(F)C(F)(F)F.CC(C)(C)C(=O)CC(=O)C(F)(F)C(F)(F)C(F)(F)F.[La] then?
Result: 18.8

* * *

test: NCI Yeast Anticancer Drug Screen. Data for the cln2 rad14 strain (AID 165);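 also: 0% = growth equal to vehicle treated cultures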; conditions: S. cerevisiae cln2 rad14 strain, hits give high values; at 50.0 µM unless noted
This is part of a sample that, as a whole, favours compounds with a hit. Of some 79,000 tested, about 15% had one in any assay.
test.readout: growth inhibition (%)
Report the figure in % without appending any unit label.

COc1ccc(NC2Oc3cc4c(cc3C(c3cc(OC)c(O)c(OC)c3)C2C)OCO4)cc1 (stereo not drawn) | 2.65
CS(=O)(=O)c1ncc(Br)cn1 | 17.1
COC(=O)CSSC(C)C | 5.1
O=C1C(O)=C(O)C(Br)=C/C1=C(/c1ccccc1S(=O)(=O)O)c1cc(Br)c(O)c(O)c1O | 1.8
OC1C(SCc2ccccc2)OCC2OC3(CCCCC3)OC21 (stereo not drawn) | -5.9
COc1cccc2c1C(=O)c1c(O)c(CCl)cc(OC)c1C2=O | -33

Problem: growth inhibition lookup needed for CC(O)CNC1=CC(=O)C(=O)c2ccccc21 (stereo not drawn) , thanks.
Result: 4.3

Problem: Now consider CCCCCCC(=O)C/C(=N/NC(N)=S)C(=O)NC1C2CC3CC(C2)CC1C3 (stereo not drawn) and answer again.
Result: 29.4

Problem: For C=CC(=O)OCCN(CCCC)CCCC then?
Result: -10.8

Problem: Next compound up: N#Cc1sc2c(c1OC(=O)c1cccs1)c(=O)n(-c1ccccc1)c(=S)n2-c1ccccc1
Result: -5.55

Problem: Can you check Cc1c(SC(Cl)(Cl)Cl)cc([N+](=O)[O-])c(N(C)C)c1[N+](=O)[O-] next?
Result: -43.9

Problem: And then O=C1CSC(c2ccccc2Cl)N1c1n[nH]c(=S)s1 (stereo not drawn) , what is it?
Result: -55

* * *

experiment: NCI Yeast Anticancer Drug Screen. Data for the rad50 strain (AID 155);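 also: 0% = growth of vehicle-only cultures of the same strain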; conditions: S. cerevisiae rad50 strain growth inhibition, hits give high values; at 50.0 µM unless noted
This is part of a sample that, as a whole, favours compounds with a hit. Of some 79,000 tested, about 15% had one in any assay.
growth inhibition: recorded values
Supply the numeric figure in %, leaving out any unit text.

Check out these entries, answers already filled in.
C=CC[Si](CC=C)(OCC)OCC | 9.65
CN1c2ccccc2N(C)C23N(C)c4ccccc4N(C)C12N(C)c1ccccc1N3C (stereo not given) | -33
COC1=CC2CC(C#N)C2(OC)C=C1 (stereo not given) | -10.8
CNC(=O)OCc1cc(C)cc(C)c1-c1ccco1 | -4.95
N=c1oc2ccc(Cl)cc2cc1C(=O)Nc1ccccc1 | 32.2
Nc1nc(=S)[nH]c(=S)[nH]1 | 22.9
Clc1ccc(/C=N\OCc2ccc(Cl)c(Cl)c2)cc1Cl | -9.85
CC(=O)CC(=O)NCC1CCC(CNC(=O)CC(C)=O)CC1 (stereo not given) | -26.6

Problem: Please report the recorded growth inhibition for CC(=O)OCC(O)CS(=O)c1ccc(C)cc1 (stereo not given) .
Result: -6.25

Problem: What do we get for ON=C1CCC(c2ccccc2)CC1 (stereo not given) ?
Result: -21.3
